Reference source for all entries: patent US7439232B2

readout_label: melting point

Lookup: Requested field: melting point. Item: CCc1ccc(Cc2ccncc2O[C@@H]2S[C@H](CO)[C@@H](O)[C@H](O)[C@H]2O)cc1
Found: 184 to 187 °C

Lookup: What value of melting point has been reported for the following molecule? CCc1ccc(Cc2c(O[C@@H]3S[C@H](CO)[C@@H](O)[C@H](O)[C@H]3O)nn(C(C)C)c2C)cc1
Found: 54 to 58.5 °C

Lookup: For the molecule CCOC(=O)OC[C@H]1S[C@@H](Oc2nn(C(=O)OCC)c(C)c2Cc2ccc(OC)cc2)[C@H](O)[C@@H](O)[C@@H]1O , what melting point is on record?
Found: 106 to 110 °C

Lookup: I am curious: what melting point value has been reported for COc1ccc(Cc2c(O[C@@H]3S[C@H](CO)[C@@H](O)[C@H](O)[C@H]3O)n[nH]c2C)cc1F ?
Found: 145 to 147 °C

Lookup: Endpoint output: melting point of OCCc1ccc(Cc2ccncc2O[C@@H]2S[C@H](CO)[C@@H](O)[C@H](O)[C@H]2O)cc1 . Value?
Found: 194.5 to 195 °C

Lookup: For the molecule shown here, CCc1ccc(Cc2nccnc2O[C@@H]2S[C@H](CO)[C@@H](O)[C@H](O)[C@H]2O)cc1 , give the reported melting point.
Found: 181 to 183.5 °C

Lookup: Requested field: melting point. Item: CCc1ccc(Cc2c(C)nc(C)nc2O[C@@H]2S[C@H](CO)[C@@H](O)[C@H](O)[C@H]2O)cc1
Found: 143 to 147.5 °C
